# TARGET OF ASSAY: Voltage-gated potassium channel subunit beta-2 (Rattus norvegicus)
# ASSAY EXPLANATION: KvBeta positive modulators, primary screen, biochemical, NADPH fluorescence (AID 623);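 also: fluorescence intensity change per second fitted from 20 to 320 s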
# MEASUREMENT CONDITIONS: Recombinant KvBeta, NADPH fluorescence decrease slope, 10 min; at 10 µM; stronger effect = lower value
Listed below: NADPH fluorescence slope values for each entry.
Keep it simple and answer with nothing but the number.

// solved cases for NADPH fluorescence slope follow
{"MOLECULE": "CCCNS(=O)(=O)c1ccc(C(=O)NCC2CCCO2)cc1 (stereo unspecified)", "TARGET OF ASSAY": "Voltage-gated potassium channel subunit beta-2 (Rattus norvegicus)", "RESULT TYPE": "NADPH fluorescence slope", "MEASURED VALUE": "-4.9e-05"}
{"MOLECULE": "CCOc1ccc(C(=O)N2CCN(c3ccccc3)CC2)cc1OCC", "TARGET OF ASSAY": "Voltage-gated potassium channel subunit beta-2 (Rattus norvegicus)", "RESULT TYPE": "NADPH fluorescence slope", "MEASURED VALUE": "9.3e-05"}
{"MOLECULE": "c1ccc2c(c1)c1c3n2CCNC3CCC1 (stereo unspecified)", "TARGET OF ASSAY": "Voltage-gated potassium channel subunit beta-2 (Rattus norvegicus)", "RESULT TYPE": "NADPH fluorescence slope", "MEASURED VALUE": "-2e-05"}
{"MOLECULE": "Cc1onc(-c2ccccc2)c1C(=O)Nc1ccc(S(=O)(=O)N2CCCCC2)cc1", "TARGET OF ASSAY": "Voltage-gated potassium channel subunit beta-2 (Rattus norvegicus)", "RESULT TYPE": "NADPH fluorescence slope", "MEASURED VALUE": "-5.5e-06"}
{"MOLECULE": "c1ccc(-n2c(Sc3cnccn3)nnc2-c2cccs2)cc1", "TARGET OF ASSAY": "Voltage-gated potassium channel subunit beta-2 (Rattus norvegicus)", "RESULT TYPE": "NADPH fluorescence slope", "MEASURED VALUE": "-1.5e-05"}

Lookup: NADPH fluorescence slope / Voltage-gated potassium channel subunit beta-2 (Rattus norvegicus) / `O=C(COC(=O)CSc1nnc(-c2ccc(Cl)cc2)o1)NCc1ccc2c(c1)OCO2`
-3.7e-05
